- Experimental Conditions: buffer; pH 7.4; 200.0 µM
Value Kind: solubility kinetic

# annotated cases, reported solubility kinetic shown
O=C(Nc1nnc(C2=COCCO2)o1)c1ccc(F)cc1 = > 43.7 µg/mL
CCOc1cc(S(=O)(=O)NCc2cccnc2)c(C)cc1C = > 48.1 µg/mL

// next item, solubility kinetic requested
Specify measured solubility kinetic for COc1ccc(C)cc1S(=O)(=O)N1CC(C)OC(C)C1 (stereo unspecified) . > 44.9 µg/mL

* * *

- Experimental Conditions: buffer; pH 7.4; 200.0 µM
Value Kind: solubility kinetic

O=C(NC1CC1)C1CC(=O)N(c2ccccc2)C1 (centres undefined) = > 36.6 µg/mL

With those in mind, consider the next compound.
Could you please provide reported solubility kinetic for O=C(CCl)Nc1nccs1 ? Thanks! > 26.5 µg/mL
